This collection of values is drawn from patent US20260062463A1.

# Study target: T1, AAV9 (adeno-associated virus 9, Assembled 60-mer capsid of VP1/VP2/VP3 (nested products of one cap gene), amine-coupled to a CM5 chip; the letters give one VP1 subunit only.)
# T1 construct: also called adeno-associated virus serotype 9
# Test protocol: SPR, AAV amine-coupled to CM5 chip
Each record here notes measured koff.
Measured metric: koff (s⁻¹)

| Binder | Measured metric | Obs value |
| --- | --- | --- |
| A4-B2 (bispecific antibody) VQLQESGGGLVQAGGSLRLSCAASGSRFSINTMGWYRQAPGKQREFVATVTRGGNTNYAESVKGRFTISRDNAKNTVYLQMNSLRPEDTAVYYCHVDEVRDSSWTTSNIWGQGTQVTVSSGGGGSGGGGSGGGGSVQLQESGGGLVQAGGSLRLSCAASGSTFSINTMGWYRQAPGKQRELVATITRGGNTNYADSVKGRFTISRDNAKNTVYLQMNSLRPEDTAVYYCHVDEVRQSSWTTSNLWGQGTQVTVSS | koff | 0.0008 |
| A4-C6 (bispecific antibody) VQLQESGGGLVQPGGSLRLSCAASGSNFRINTMGWYRQAPGKQRELVAPVTRGGSTNYADSVKGRFTISRDNAKNTVYLQMNSLRPEDTAVYYCHVDEVRESSWTTSNLWGQGTQVTVSSGGGGSGGGGSGGGGSVQLQESGGGLVQPGGSLRLSCAASGSNFSINTMGWYRQAPGKQRELVAALTRGGSTNYADSVKGRFTISRDNAKNTVYLQMNSLRPEDTAVYYCHVDEVRESSWTTSNLWGQGTQVTVSSGGGGSGGGGSGGGGSVQLQESGGGLVQPGGSLRLSCAASGSNFSINTMGWYRQAPGKQRELVATVTRGGDTNYADSVKGRFTISRDNAKNTVYLQMNSLRPEDTAVYYCHVDEIRESSWTTSNLWGQGTQVTVSS | koff | 2.5e-05 |
